Test target: T1, mesothelin-Fc recombinant protein (human, UniProt Q13421 296-580, limits assumed)
T1 construct: also called mesothelin-Fc protein; human Mesothelin-Fc; not shown: Fc part
T1 sequence (Q13421 other isoform, or with tags, fused parts or gaps limits assumed): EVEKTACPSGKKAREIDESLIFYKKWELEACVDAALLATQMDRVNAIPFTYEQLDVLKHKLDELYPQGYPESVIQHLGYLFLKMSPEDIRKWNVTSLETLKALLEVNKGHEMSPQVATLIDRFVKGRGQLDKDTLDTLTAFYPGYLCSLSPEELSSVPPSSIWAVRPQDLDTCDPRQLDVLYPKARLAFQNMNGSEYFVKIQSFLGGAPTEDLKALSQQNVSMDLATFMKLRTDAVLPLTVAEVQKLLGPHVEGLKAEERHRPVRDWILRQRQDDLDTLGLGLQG
Test protocol: FACS of T cells expressing the scFv CAR, stained with Mesothelin-Fc + PE-anti-IgG-Fc; Mock T cells of the same block: 0.97
Assignment: determine reported number in the Mesothelin-Fc positive gate (percent of cells, unit not given) for the given binders.

Some binders with known number in the Mesothelin-Fc positive gate (percent of cells, unit not given) results, for comparison:
[
  {
    "Binder": "anti-mesothelin scFv-M20 (scFv) AIQMTQSPSSLSASVGNRVTITCRASQGISSAVAWYQQKPGKPPKLLISYASSLESGVPSRFSGSGSGTDFSLTISSLQPEDFATYFCQQFNSYPLTFGGGTKVEIKGGGGSGGGGSGGGGSQVQLVQSGAEVRKPGESLKISCKGSGYSFRDSWIAWVRQMPGQGLEWMGIIFPGDSNPIYSPSFQGQVTISADTSISTTFLQWRSLKASDSAIYYCARHAAWGAGWFDPWGQGTLVTVSS",
    "Observed": 75.6
  },
  {
    "Binder": "anti-mesothelin scFv-M31 (scFv) QSALTQPPSASGSPGQSVTISCTGTSSDIGGYNSVSWYQQHPGKAPKLIIYGVSRRPSGVPDRFSGSKSANTASLTVSGLQAVDEADYYCSSYGGSNNLLFGGGTKLTVLGGGGSGGGGSGGGGSEVHLVESGGGLAQPGGSLRLSCAASGFSFSSSWMAWVRQAPGKGLEWVANIKQDGSSQYYVDSVKGRFTISRDNAKNSLSLQMNSLRAEDTAVYYCARDIWYSIDYWGQGTLVTVSS",
    "Observed": 67.9
  }
]

Let us examine a further case.
Which measured number in the Mesothelin-Fc positive gate (percent of cells, unit not given) value corresponds to anti-mesothelin scFv-M22 (scFv) QSALTQPASVSGSPGQSITLSCTGTRRDIGGYEYVSWYQQHPGKAPKLLIFSVNNRPSGVSHRFSGSKSGNTASLTISGLQAEDEAAYFCSSYSSRDTLVLFGGGTKLTVLGGGGSGGGGSGGGGSQVQLVQSGAEVKKPGSSVKVSCKASGGTFSSYAISWVRQAPGQGLEWMGGIIPIFGTANYAQKFQGRVTITADESTSTAYMELSSLRSEDTAVYYCASGRSGSYGLYWGQGTLVTVSS ?
80
